tested on: HS 578T breast; experiment: NCI-60 one-dose screen, 48 h; settings: 10 µM unless noted
The panel holds about 83,000 compounds, 20% with a hit somewhere; the sample as a whole holds those more often. Calls of active or inactive are those of the source. Rule for the calls: active = growth percent below 10; inactive = the rest. Where a SMILES comes first, the peptide text is derived from it. The star is where a group is joined. Trt = c1ccc(C(c2ccccc2)(c2ccccc2)*)cc1; Cbz = O=C(OCc1ccccc1)*
Labels: TRUE (active), FALSE (inactive)

• S=C(N/N=C/c1ccccn1)Nc1ccccn1 = FALSE
• COC(=O)C(CSC(c1ccccc1)(c1ccccc1)c1ccccc1)NC(=O)C(CC(N)=O)NC(=O)OCc1ccccc1 (stereo not drawn) (Cbz-Asn-Cys(Trt)-OMe; configuration not given here) = TRUE
• COc1ccc(N=N/N=c2\sc3cc(OC)ccc3n2C)cc1 = FALSE
• N#CSCc1ccc(Cl)c(CSC#N)c1 = FALSE
• Cc1ccc2nc(-[n+]3cc4ccccc4cc3C)ccc2c1 = FALSE
• CCOc1ccc(-c2nc3ccc(-c4nc5ccc(N6CCN(C)CC6)cc5[nH]4)cc3[nH]2)cc1 = TRUE
• NC1=CC(=O)c2ccccc2C1=O = FALSE
• CC(=Nc1ccc(N(C)C)cc1)c1ccccc1 = FALSE
• Cc1cc(C(C)(CC(C)C)c2ccc(O)c(C)c2)ccc1O = FALSE
• O=C(CC1(O)C(=O)Nc2c(Cl)ccc(Cl)c21)c1ccc(Cl)cc1Cl (stereo unspecified) = FALSE
• O=C(/C=C\c1ccccc1)N1c2ccccc2CC1c1c[nH]c2ccccc12 (stereo unspecified) = FALSE
